This section presents sequences with their documented Binding of serum 6 to looped/cyclic peptide (PEPSCAN-ELISA) values.
- Test system: antibodies in sera from SARS patients (sera 1a, 1b, 2, 6, 37, 62, London, SARS-yellow, SARS-green)
- Assay type: binding, human
- Set-up: unit not given here
Write no unit; give the number alone.

Worked set:
LCWKCKSKNPLLYDA: 0.8
WLVIGVAFLAVFQSA: 0.2
KIIALNKRWQLALYK: 0.8
ALNKRWQLALYKGFQ: 0.6
FLAVFQSATKIIALN: 1.0
TIPLQASLPFGWLVI: 0.4
HATATIPLQASLPFG: 0.5
DLFMRFFTLGSITAQ: 0.3

For the sequence `ATIPLQASLPFGWLV` , give its measured Binding of serum 6 to looped/cyclic peptide (PEPSCAN-ELISA) value.
0.4

Assign Binding of serum 6 to looped/cyclic peptide (PEPSCAN-ELISA) to the following record: `MRFFTLGSITAQPVK`
0.2

Annotate the sequence `IIMRCWLCWKCKSKN` with its measured Binding of serum 6 to looped/cyclic peptide (PEPSCAN-ELISA).
0.5
